Hey, just so you know, these numbers are from paper PMC11001709.

System: pBR322 plasmid DNA
Assay: Agarose gel electrophoresis, DNA cleavage
Type: biochemical
Condition label: compound 50 (mM in the source), + H2O2
Reported values of %Supercoiled for individual entries
Measured quantity: %Supercoiled

[[record]]
molecule = "Cc1ncc([N+](=O)[O-])n1CCCl.Cc1ncc([N+](=O)[O-])n1CCCl.[Br][Zn][Br] [[Zn(cenz)2Br2]]"
measured_quantity = "%Supercoiled"
recorded_result = "1.60%"

[[record]]
molecule = "Cc1ncc([N+](=O)[O-])n1CCCl"
measured_quantity = "%Supercoiled"
recorded_result = "92.80%"

[[record]]
molecule = "Cc1ncc([N+](=O)[O-])n1CC(O)CCl (stereo not drawn) [onz, reference compound]"
measured_quantity = "%Supercoiled"
recorded_result = "89.30%"

[[record]]
molecule = "Cc1ncc([N+](=O)[O-])n1CCCl.Cc1ncc([N+](=O)[O-])n1CCCl.[Cl][Zn][Cl] [[Zn(cenz)2Cl2]]"
measured_quantity = "%Supercoiled"
recorded_result = "2.40%"

[[record]]
molecule = "Cc1ncc([N+](=O)[O-])n1CC(O)CCl.Cc1ncc([N+](=O)[O-])n1CC(O)CCl.[Cl][Zn][Cl] (stereo not drawn) [[Zn(onz)2Cl2]]"
measured_quantity = "%Supercoiled"
recorded_result = "21.70%"

[[record]]
molecule = "Cc1n(CC(O)CCl)c([N+](=O)[O-])c[n+]1[Zn-2]([Br])([Br])[n+]1cc([N+](=O)[O-])n(CC(O)CCl)c1C (stereo not drawn) [[Zn(onz)2Br2]]"
measured_quantity = "%Supercoiled"
recorded_result = "55.20%"


====

Reported values of %Damage for individual entries
System: pBR322 plasmid DNA
Assay: Agarose gel electrophoresis, DNA cleavage
Format: biochemical
Condition label: compound 50 (mM in the source), + H2Asc + H2O2
Measured quantity: %Damage

[[record]]
compound = "Cc1n(CC(O)CCl)c([N+](=O)[O-])c[n+]1[Cu-2]([Br])([Br])[n+]1cc([N+](=O)[O-])n(CC(O)CCl)c1C (stereo not shown) [[Cu(onz)2Br2]]"
recorded_result = "100.00%"

[[record]]
compound = "Cc1ncc([N+](=O)[O-])n1CCCl [cenz]"
recorded_result = "9.70%"

[[record]]
compound = "Cc1ncc([N+](=O)[O-])n1CCCl.Cc1ncc([N+](=O)[O-])n1CCCl.[Cl][Cu][Cl] [[Cu(cenz)2Cl2]]"
recorded_result = "100.00%"

[[record]]
compound = "Cc1ncc([N+](=O)[O-])n1CC(O)CCl.Cc1ncc([N+](=O)[O-])n1CC(O)CCl.[Cl][Zn][Cl] (stereo not shown) [[Zn(onz)2Cl2]]"
recorded_result = "100.00%"


====

Test system: pBR322 plasmid DNA
Assay: Agarose gel electrophoresis, DNA cleavage
Type: biochemical
Condition label: compound 10 (mM in the source), no additive
Measured quantity: %Nicked (%)

[[record]]
compound = "Cc1ncc([N+](=O)[O-])n1CC(O)CCl.Cc1ncc([N+](=O)[O-])n1CC(O)CCl.[Cl-].[Cl-].[Cu+2] (centres unmarked) [[Cu(onz)2Cl2]]"
measured_quantity = "%Nicked"
output_unit = "%"
recorded_result = 6.40

[[record]]
compound = "Cc1ncc([N+](=O)[O-])n1CCCl.Cc1ncc([N+](=O)[O-])n1CCCl.[Cl][Zn][Cl] [[Zn(cenz)2Cl2]]"
measured_quantity = "%Nicked"
output_unit = "%"
recorded_result = 2.50

[[record]]
compound = "Cc1ncc([N+](=O)[O-])n1CCCl.Cc1ncc([N+](=O)[O-])n1CCCl.[Br][Cu][Br] [[Cu(cenz)2Br2]]"
measured_quantity = "%Nicked"
output_unit = "%"
recorded_result = 11.30

[[record]]
compound = "Cc1n(CC(O)CCl)c([N+](=O)[O-])c[n+]1[Zn-2]([Br])([Br])[n+]1cc([N+](=O)[O-])n(CC(O)CCl)c1C (centres unmarked) [[Zn(onz)2Br2]]"
measured_quantity = "%Nicked"
output_unit = "%"
recorded_result = 2.60

[[record]]
compound = "Cc1ncc([N+](=O)[O-])n1CCCl.Cc1ncc([N+](=O)[O-])n1CCCl.[Br][Zn][Br] [[Zn(cenz)2Br2]]"
measured_quantity = "%Nicked"
output_unit = "%"
recorded_result = 3.00


====

System: pBR322 plasmid DNA
Assay: Agarose gel electrophoresis, DNA cleavage
Format: biochemical
Condition label: compound 50 (mM in the source), + H2Asc
Threshold-based label: %Supercoiled under 4% gives Yes, %Supercoiled not under 4% gives No.

[[record]]
compound = "Cc1ncc([N+](=O)[O-])n1CC(O)CCl (centres unmarked) [onz, reference compound]"
label_value = "No"

[[record]]
compound = "Cc1ncc([N+](=O)[O-])n1CCCl"
label_value = "No"

[[record]]
compound = "Cc1ncc([N+](=O)[O-])n1CCCl.Cc1ncc([N+](=O)[O-])n1CCCl.[Cl][Zn][Cl] [[Zn(cenz)2Cl2]]"
label_value = "No"

[[record]]
compound = "Cc1n(CC(O)CCl)c([N+](=O)[O-])c[n+]1[Zn-2]([Br])([Br])[n+]1cc([N+](=O)[O-])n(CC(O)CCl)c1C (centres unmarked) [[Zn(onz)2Br2]]"
label_value = "Yes"


====

Tested on: pBR322 plasmid DNA
Assay: Agarose gel electrophoresis, DNA cleavage
Format: biochemical
Condition label: compound 50 (mM in the source), + H2O2
Threshold-based label: %Nicked under 30% gives MET, %Nicked not under 30% gives NOT MET.

[[record]]
molecule = "Cc1ncc([N+](=O)[O-])n1CC(O)CCl (stereo not drawn) [onz, reference compound]"
label_value = "MET"

[[record]]
molecule = "Cc1ncc([N+](=O)[O-])n1CC(O)CCl.Cc1ncc([N+](=O)[O-])n1CC(O)CCl.[Cl][Zn][Cl] (stereo not drawn) [[Zn(onz)2Cl2]]"
label_value = "NOT MET"

[[record]]
molecule = "Cc1ncc([N+](=O)[O-])n1CCCl.Cc1ncc([N+](=O)[O-])n1CCCl.[Br][Zn][Br] [[Zn(cenz)2Br2]]"
label_value = "NOT MET"

[[record]]
molecule = "Cc1ncc([N+](=O)[O-])n1CCCl"
label_value = "MET"

[[record]]
molecule = "Cc1ncc([N+](=O)[O-])n1CCCl.Cc1ncc([N+](=O)[O-])n1CCCl.[Cl][Zn][Cl] [[Zn(cenz)2Cl2]]"
label_value = "NOT MET"


====

Test system: RH tachyzoites of Toxoplasma gondii
Assay: Viability of extracellular tachyzoites, Sytox Green exclusion test
Assay type: cell-based
Condition label: 1 h, PBS pH 7.4, mean ± standard error of three replicates, read-out: IC50
Procedure: RH tachyzoites of Toxoplasma gondii were extracted in PBS solution at pH 7.4 from intraperitoneal fluid of infected CD1 mice on the third day of infection and centrifuged for ten minutes at 260g. […] The viability of the parasites was determined from staining with Sytox Green® fluorescent dye exclusion test. […] The half maximal inhibitory concentration (IC50) was calculated by Boltzmann regression analysis and expressed as mean ± standard error of three replicates. […]
Reported values of IC50 for individual entries
Measured quantity: IC50 (µM)

[[record]]
molecule = "Cc1ncc([N+](=O)[O-])n1CCCl.Cc1ncc([N+](=O)[O-])n1CCCl.[Cl][Cu][Cl] [[Cu(cenz)2Cl2]]"
measured_quantity = "IC50"
output_unit = "µM"
recorded_result = 30.6

[[record]]
molecule = "Cc1ncc([N+](=O)[O-])n1CC(O)CCl.Cc1ncc([N+](=O)[O-])n1CC(O)CCl.[Cl-].[Cl-].[Cu+2] (stereo not shown) [[Cu(onz)2Cl2]]"
measured_quantity = "IC50"
output_unit = "µM"
recorded_result = 8.49

[[record]]
molecule = "Cc1ncc([N+](=O)[O-])n1CCCl.Cc1ncc([N+](=O)[O-])n1CCCl.[Br][Zn][Br] [[Zn(cenz)2Br2]]"
measured_quantity = "IC50"
output_unit = "µM"
recorded_result = 40

[[record]]
molecule = "Cc1n(CC(O)CCl)c([N+](=O)[O-])c[n+]1[Cu-2]([Br])([Br])[n+]1cc([N+](=O)[O-])n(CC(O)CCl)c1C (stereo not shown) [[Cu(onz)2Br2]]"
measured_quantity = "IC50"
output_unit = "µM"
recorded_result = 2.73


====

Reported values of %Nicked for individual entries
Tested on: pBR322 plasmid DNA
Assay: Agarose gel electrophoresis, DNA cleavage
Assay type: biochemical
Condition label: compound 10 (mM in the source), + H2Asc + H2O2
Measured quantity: %Nicked (%)

[[record]]
molecule = "Cc1ncc([N+](=O)[O-])n1CCCl.Cc1ncc([N+](=O)[O-])n1CCCl.[Br][Zn][Br] [[Zn(cenz)2Br2]]"
assay_system = "pBR322 plasmid DNA"
measured_quantity = "%Nicked"
recorded_result = 75.80

[[record]]
molecule = "Cc1ncc([N+](=O)[O-])n1CC(O)CCl.Cc1ncc([N+](=O)[O-])n1CC(O)CCl.[Cl][Zn][Cl] (stereo not shown) [[Zn(onz)2Cl2]]"
assay_system = "pBR322 plasmid DNA"
measured_quantity = "%Nicked"
recorded_result = 44.00

[[record]]
molecule = "Cc1ncc([N+](=O)[O-])n1CC(O)CCl.Cc1ncc([N+](=O)[O-])n1CC(O)CCl.[Cl-].[Cl-].[Cu+2] (stereo not shown) [[Cu(onz)2Cl2]]"
assay_system = "pBR322 plasmid DNA"
measured_quantity = "%Nicked"
recorded_result = 46.50

[[record]]
molecule = "Cc1ncc([N+](=O)[O-])n1CCCl.Cc1ncc([N+](=O)[O-])n1CCCl.[Cl][Zn][Cl] [[Zn(cenz)2Cl2]]"
assay_system = "pBR322 plasmid DNA"
measured_quantity = "%Nicked"
recorded_result = 2.10

